Cited source for all entries: paper PMC6418270

system: AGAP002232 (Anopheles gambiae, UniProt A0A1S4GEY1)
Sequence (A0A1S4GEY1 entry or part of it): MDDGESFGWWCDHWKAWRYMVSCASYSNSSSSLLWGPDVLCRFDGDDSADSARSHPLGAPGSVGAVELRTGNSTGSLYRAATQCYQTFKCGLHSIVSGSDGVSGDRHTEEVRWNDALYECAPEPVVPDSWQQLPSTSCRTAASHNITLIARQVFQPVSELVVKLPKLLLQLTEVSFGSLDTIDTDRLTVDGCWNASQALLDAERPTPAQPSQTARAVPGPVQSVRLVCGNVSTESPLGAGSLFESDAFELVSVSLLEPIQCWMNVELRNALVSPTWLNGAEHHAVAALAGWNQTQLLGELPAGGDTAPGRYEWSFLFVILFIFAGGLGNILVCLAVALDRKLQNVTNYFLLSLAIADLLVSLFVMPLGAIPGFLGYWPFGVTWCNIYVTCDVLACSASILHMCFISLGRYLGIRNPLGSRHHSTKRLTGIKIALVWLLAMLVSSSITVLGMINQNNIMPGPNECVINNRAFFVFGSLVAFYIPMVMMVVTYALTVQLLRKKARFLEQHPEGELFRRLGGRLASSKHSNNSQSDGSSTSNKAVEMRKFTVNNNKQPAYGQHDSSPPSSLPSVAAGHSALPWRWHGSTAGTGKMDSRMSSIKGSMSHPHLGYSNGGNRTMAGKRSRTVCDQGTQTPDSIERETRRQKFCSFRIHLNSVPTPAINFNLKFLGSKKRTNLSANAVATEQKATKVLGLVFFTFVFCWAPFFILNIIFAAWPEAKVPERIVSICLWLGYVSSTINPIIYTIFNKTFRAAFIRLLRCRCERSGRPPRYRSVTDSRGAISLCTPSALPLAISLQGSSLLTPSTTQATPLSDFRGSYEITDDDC
measurement-notes: Fluo-4 calcium assay in CRE-luc2P HEK-293 cells expressing AGAP002232
condition-description: read-out: IC50 (calcium response to 5-HT); AGAP002232 HEK-293 cells
measured-endpoint: IC50 (nM)
One number for each entry, in nM.

Problem: Indicate the recorded IC50 value for this compound: CS(=O)(=O)O.CSc1ccc2c(c1)C(N1CCN(C)CC1)Cc1ccccc1S2 (stereo not shown) [methiothepin, methiothepin mesylate salt]
Solution: 0.56

###

system: AGAP002232 (Anopheles gambiae)
measurement-notes: Fluo-4 calcium assay in CRE-luc2P HEK-293 cells expressing AGAP002232
Structures can show the parent of a compound that is named as a salt.
measured-endpoint: EC50 (nM)
Answers are plain numbers, in nM.

Problem: Write EC50 of NCCc1c[nH]c2ccc(O)cc12 [5-HT, serotonin hydrochloride] ; system used: AGAP002232 (Anopheles gambiae)
Solution: 1900
